# study.target: mKv1.1-AEHS/PSGN (Mus musculus, UniProt P16388, A352P/E353S/H355G/S357N)
# Construct: expressed in transfected cells; host or cells: HEK293T cells, pIRES2-EGFP vector
# Sequence (P16388 whole entry A352P/E353S/H355G/S357N): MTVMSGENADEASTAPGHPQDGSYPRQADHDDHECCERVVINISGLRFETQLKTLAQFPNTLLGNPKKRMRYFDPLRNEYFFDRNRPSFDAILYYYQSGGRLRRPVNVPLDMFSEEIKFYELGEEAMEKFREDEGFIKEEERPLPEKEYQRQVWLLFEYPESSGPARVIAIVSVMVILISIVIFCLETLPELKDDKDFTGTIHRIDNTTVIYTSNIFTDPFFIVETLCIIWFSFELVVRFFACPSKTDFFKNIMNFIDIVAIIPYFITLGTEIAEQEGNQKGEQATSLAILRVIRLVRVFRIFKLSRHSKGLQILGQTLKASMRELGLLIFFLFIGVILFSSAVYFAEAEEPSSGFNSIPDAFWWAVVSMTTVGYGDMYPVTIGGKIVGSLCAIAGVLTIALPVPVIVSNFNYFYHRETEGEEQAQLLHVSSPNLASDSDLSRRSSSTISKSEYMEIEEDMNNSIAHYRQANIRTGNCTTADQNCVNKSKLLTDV
# measurement.notes: Whole-cell patch-clamp, turret mutant Kv1.1-AEHS/PSGN expressed in HEK293T cells
# Assay type: cell-based
# measurement.conditions: four Kv1.1 turret residues replaced by those of Kv1.3, mean ± SE of six experiments, SEM, read-out: IC50 on Kv1.1-AEHS/PGSN mutant channel
Bridge positions count the residues as written; N and C are the ends. Ends that are not written are not given here.
experimental.endpoint: pIC50
Just so you know, pIC50 here is -log10 of the concentration in molar units; reply with that number alone.

Would you kindly share the measured pIC50 for AFPSENPTGGCPLSDNVCSSYCKKNKFGNEGKCHGTICKCSIK (disulfide 11-33, 18-38, 22-40 (inferred)) [KTX-Sp4] ?
7.92

====

# study.target: mKv1.3 (Mus musculus, UniProt P16390)
# Construct: expressed in transfected cells; host or cells: HEK293T cells, pIRES2-EGFP vector
# Sequence (P16390 whole entry): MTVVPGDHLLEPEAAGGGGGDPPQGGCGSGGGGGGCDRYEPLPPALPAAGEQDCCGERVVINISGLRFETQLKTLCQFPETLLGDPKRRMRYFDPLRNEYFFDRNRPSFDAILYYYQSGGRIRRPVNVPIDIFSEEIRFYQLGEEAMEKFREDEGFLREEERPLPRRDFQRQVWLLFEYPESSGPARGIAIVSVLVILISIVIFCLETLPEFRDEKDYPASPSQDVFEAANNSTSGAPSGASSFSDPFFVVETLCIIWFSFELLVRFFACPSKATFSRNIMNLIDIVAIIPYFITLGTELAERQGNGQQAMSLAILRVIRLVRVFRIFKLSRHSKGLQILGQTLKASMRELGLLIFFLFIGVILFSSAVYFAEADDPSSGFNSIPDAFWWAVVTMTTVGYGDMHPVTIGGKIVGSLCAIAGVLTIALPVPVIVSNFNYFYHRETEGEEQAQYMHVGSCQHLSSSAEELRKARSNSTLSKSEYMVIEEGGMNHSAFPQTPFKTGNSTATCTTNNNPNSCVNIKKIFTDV
# measurement.notes: Whole-cell patch-clamp, mKv1.3 heterologously expressed in HEK293T cells
# Assay type: cell-based
# measurement.conditions: HEK293T cells, steady-state current at end of depolarizing pulse, n = 10; read-out: IC50 on wild-type mKv1.3-mediated steady-state current
Bridge positions count the residues as written; N and C are the ends. Ends that are not written are not given here.
experimental.endpoint: pIC50
Just so you know, pIC50 here is -log10 of the concentration in molar units; reply with that number alone.

Would you kindly share the measured pIC50 for AFPSENPTGGCPLSDNVCSSYCKKNKFGNEGKCHGTICKCSIK (disulfide 11-33, 18-38, 22-40 (inferred)) [KTX-Sp4] ?
7.61

====

# study.target: endogenous Kv1.3 expressed by human Jurkat T cells (Homo sapiens, UniProt P22001)
# Construct: endogenous Kv1.3 expressed by human Jurkat T cells; endogenous in cells; host or cells: Jurkat E6-1 T cells (ATCC TIB152)
# Sequence (P22001 whole entry): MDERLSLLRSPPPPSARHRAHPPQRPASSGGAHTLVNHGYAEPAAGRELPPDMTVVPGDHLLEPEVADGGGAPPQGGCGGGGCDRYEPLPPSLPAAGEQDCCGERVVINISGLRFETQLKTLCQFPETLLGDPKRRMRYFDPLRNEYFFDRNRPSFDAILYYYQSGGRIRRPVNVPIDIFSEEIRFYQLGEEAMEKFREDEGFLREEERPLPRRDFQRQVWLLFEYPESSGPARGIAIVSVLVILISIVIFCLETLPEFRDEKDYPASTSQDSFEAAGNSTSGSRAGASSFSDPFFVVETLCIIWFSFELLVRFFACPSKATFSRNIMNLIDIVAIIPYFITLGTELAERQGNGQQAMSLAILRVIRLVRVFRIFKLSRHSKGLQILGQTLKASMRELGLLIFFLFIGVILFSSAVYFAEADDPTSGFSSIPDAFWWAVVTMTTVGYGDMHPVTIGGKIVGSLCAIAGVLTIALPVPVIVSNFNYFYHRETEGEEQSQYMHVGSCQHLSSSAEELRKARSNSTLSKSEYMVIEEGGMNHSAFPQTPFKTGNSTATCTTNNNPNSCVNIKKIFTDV
# measurement.notes: Whole-cell patch-clamp, endogenous Kv1.3 currents in Jurkat T cells
# Assay type: cell-based
# measurement.conditions: whole-cell patch-clamp, +50 mV 400 ms pulse from -60 mV, almost zero cytosolic Ca2+ pipette solution, Hill fit, n = 8; read-out: IC50 of inhibition of Kv1.3 current in Jurkat T cells
Bridge positions count the residues as written; N and C are the ends. Ends that are not written are not given here.
experimental.endpoint: pIC50
Just so you know, pIC50 here is -log10 of the concentration in molar units; reply with that number alone.

Would you kindly share the measured pIC50 for AFPSENPTGGCPLSDNVCSSYCKKNKFGNEGKCHGTICKCSIK (disulfide 11-33, 18-38, 22-40 (inferred)) [KTX-Sp4] ?
6.63
